- System: forty-four human cancer cell lines
- testProtocol: Cell proliferation assay (ATPlite, 72 hours) in the 44 cell line Oncolines panel
- Type: cell-based
- details: cell line PA-1; read-out: cell panel IC50, PA-1
metricName: pIC50
In textbook form, pIC50 equals minus log to base ten of the concentration in mol/L.

# input compound: N.N.[Cl][Pt][Cl] [cisplatin] ; wanted: its pIC50
5.85

----------
- Tested on: forty-four human cancer cell lines
- testProtocol: Cell proliferation assay (ATPlite, 72 hours) in the 44 cell line Oncolines panel
- Type: cell-based
- details: cell line LoVo; read-out: cell panel IC50, LoVo
pIC50: −log10 of the molar value.
metricName: pIC50

Find the recorded pIC50 belonging to N.N.[Cl][Pt][Cl] [cisplatin] and report it.
< 4.50

----------
- subjectOfTest: panel of more than 300 wild-type and mutant kinases (313 kinase panel) (Homo sapiens)
- Sequence (Q9HBY8 1-367): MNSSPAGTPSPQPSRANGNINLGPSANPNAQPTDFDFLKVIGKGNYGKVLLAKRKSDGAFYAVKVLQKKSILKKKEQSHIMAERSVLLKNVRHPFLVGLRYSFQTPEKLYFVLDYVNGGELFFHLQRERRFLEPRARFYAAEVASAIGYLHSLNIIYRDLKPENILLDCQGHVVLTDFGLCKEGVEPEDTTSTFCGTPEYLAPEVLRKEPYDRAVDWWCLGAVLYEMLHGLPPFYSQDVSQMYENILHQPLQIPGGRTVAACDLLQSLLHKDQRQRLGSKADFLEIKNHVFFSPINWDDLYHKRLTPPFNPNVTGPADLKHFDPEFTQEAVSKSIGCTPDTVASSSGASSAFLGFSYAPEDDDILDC
- testProtocol: Kinase profiling in a biochemical assay panel (mobility shift assays and ELISA), %-inhibition at 1 μM; selectivity entropy
- details: kinase SGK2; 1 μM
metricName: %-inhibition of SGK2 (%)
Give the value, in units of %, as a plain number.

Reference set (5 entries):
# molecule, %-inhibition of SGK2 / %
rows = [
    ("CC(C)(C)c1nc(-c2cccc(NS(=O)(=O)c3c(F)cccc3F)c2F)c(-c2ccnc(N)n2)s1 [dabrafenib]", -7.58),
    ("O=S(=O)(c1cccc2cnccc12)N1CCCNCC1 [fasudil]", -0.764),
    ("CS(=O)(=O)CCNCc1ccc(-c2ccc3ncnc(Nc4ccc(OCc5cccc(F)c5)c(Cl)c4)c3c2)o1 [lapatinib]", 1.81),
    ("CO[C@H]1C[C@@H]2CC[C@@H](C)[C@@](O)(O2)C(=O)C(=O)N2CCCC[C@H]2C(=O)O[C@H]([C@H](C)C[C@@H]2CC[C@@H](OCCO)[C@H](OC)C2)CC(=O)[C@H](C)/C=C(\\C)[C@@H](O)[C@@H](OC)C(=O)[C@H](C)C[C@H](C)/C=C/C=C/C=C/1C [everolimus]", -2),
    ("N#CC[C@H](C1CCCC1)n1cc(-c2ncnc3[nH]ccc23)cn1 [ruxolitinib]", -1.48),
]

Which %-inhibition of SGK2 is reported for this molecule? CNC(=O)c1cc(Oc2ccc(NC(=O)Nc3ccc(Cl)c(C(F)(F)F)c3)c(F)c2)ccn1 [regorafenib]
1

# %-inhibition of SGK2 lookup, item Cc1ccc(Nc2nccc(N(C)c3ccc4c(C)n(C)nc4c3)n2)cc1S(N)(=O)=O [pazopanib]
-3.44

Report %-inhibition of SGK2 for Cc1nc(Nc2ncc(C(=O)Nc3c(C)cccc3Cl)s2)cc(N2CCN(CCO)CC2)n1 [dasatinib] please.
6

What value of %-inhibition of SGK2 has been recorded for this entry: CO[C@H]1C[C@@H]2CC[C@@H](C)[C@@](O)(O2)C(=O)C(=O)N2CCCC[C@H]2C(=O)O[C@H]([C@H](C)C[C@@H]2CC[C@@H](OC(=O)C(C)(CO)CO)[C@H](OC)C2)CC(=O)[C@H](C)/C=C(\C)[C@@H](O)[C@@H](OC)C(=O)[C@H](C)C[C@H](C)/C=C/C=C/C=C/1C [temsirolimus]
-2.66

----------
# maps each entry to its %-inhibition of FGFR3(K650E)
- subjectOfTest: panel of more than 300 wild-type and mutant kinases (313 kinase panel) (Homo sapiens, UniProt P22607, K650E)
- Sequence (P22607 23-806 K650E): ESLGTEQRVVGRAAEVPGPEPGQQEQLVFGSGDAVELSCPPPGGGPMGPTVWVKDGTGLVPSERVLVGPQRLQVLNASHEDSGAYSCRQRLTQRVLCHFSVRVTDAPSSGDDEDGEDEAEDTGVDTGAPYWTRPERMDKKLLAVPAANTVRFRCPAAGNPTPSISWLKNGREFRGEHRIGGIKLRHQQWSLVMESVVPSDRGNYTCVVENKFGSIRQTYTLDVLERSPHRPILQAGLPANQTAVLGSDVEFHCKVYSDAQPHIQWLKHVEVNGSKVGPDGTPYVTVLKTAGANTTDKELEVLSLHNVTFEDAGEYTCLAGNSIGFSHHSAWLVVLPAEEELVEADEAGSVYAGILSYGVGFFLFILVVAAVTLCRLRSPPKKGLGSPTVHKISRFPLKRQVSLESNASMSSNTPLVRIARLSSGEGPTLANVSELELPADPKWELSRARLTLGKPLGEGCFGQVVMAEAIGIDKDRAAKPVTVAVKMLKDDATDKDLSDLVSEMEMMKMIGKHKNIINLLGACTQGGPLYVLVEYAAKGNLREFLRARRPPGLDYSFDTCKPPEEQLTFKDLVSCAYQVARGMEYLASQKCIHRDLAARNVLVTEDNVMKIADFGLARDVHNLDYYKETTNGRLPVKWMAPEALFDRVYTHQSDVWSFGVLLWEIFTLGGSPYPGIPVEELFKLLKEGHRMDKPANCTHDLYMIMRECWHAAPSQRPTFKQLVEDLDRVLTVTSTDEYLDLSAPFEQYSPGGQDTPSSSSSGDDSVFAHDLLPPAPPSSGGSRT
- testProtocol: Kinase profiling in a biochemical assay panel (mobility shift assays and ELISA), %-inhibition at 1 μM; selectivity entropy
- details: kinase FGFR3(K650E); compound at 1 μM
Your reply should be a number followed by the unit it is expressed in.

# compound, %-inhibition of FGFR3(K650E)
measured = [
    ("CNC(=O)c1cc(Oc2ccc(NC(=O)Nc3ccc(Cl)c(C(F)(F)F)c3)c(F)c2)ccn1 [regorafenib]", "99%"),
    ("CCCS(=O)(=O)Nc1ccc(F)c(C(=O)c2c[nH]c3ncc(-c4ccc(Cl)cc4)cc23)c1F [vemurafenib]", "6.55%"),
]

May I ask what %-inhibition of FGFR3(K650E) has been recorded for CS(=O)(=O)CCNCc1ccc(-c2ccc3ncnc(Nc4ccc(OCc5cccc(F)c5)c(Cl)c4)c3c2)o1 [lapatinib] ?
0.415%

I have this compound here, O=S(=O)(c1cccc2cnccc12)N1CCCNCC1 [fasudil] , and I need its recorded %-inhibition of FGFR3(K650E).
-0.641%

What value of measured %-inhibition of FGFR3(K650E) is listed for CO[C@H]1C[C@@H]2CC[C@@H](C)[C@@](O)(O2)C(=O)C(=O)N2CCCC[C@H]2C(=O)O[C@H]([C@H](C)C[C@@H]2CC[C@@H](OC(=O)C(C)(CO)CO)[C@H](OC)C2)CC(=O)[C@H](C)/C=C(\C)[C@@H](O)[C@@H](OC)C(=O)[C@H](C)C[C@H](C)/C=C/C=C/C=C/1C [temsirolimus] ?
-2.55%

// %-inhibition of FGFR3(K650E) lookup, key: COc1cc2nccc(Oc3ccc(NC(=O)C4(C(=O)Nc5ccc(F)cc5)CC4)cc3)c2cc1OC [cabozantinib]
26%

----------
- subjectOfTest: panel of more than 300 wild-type and mutant kinases (313 kinase panel) (Homo sapiens)
- testProtocol: Kinase profiling in a biochemical assay panel (mobility shift assays and ELISA), %-inhibition at 1 μM; selectivity entropy
- details: kinase KIT; compound at 1 μM
metricName: %-inhibition of KIT (%)
# output: bare number, implied unit %

Worked examples, 10 molecules total:
# molecule, subjectOfTest, %-inhibition of KIT / %
data = [
    ("COc1cc(Nc2c(C#N)cnc3cc(OCCCN4CCN(C)CC4)c(OC)cc23)c(Cl)cc1Cl", "panel of more than 300 wild-type and mutant kinases (313 kinase panel) (Homo sapiens)", 23),
    ("CC(C)(C)c1nc(-c2cccc(NS(=O)(=O)c3c(F)cccc3F)c2F)c(-c2ccnc(N)n2)s1", "panel of more than 300 wild-type and mutant kinases (313 kinase panel) (Homo sapiens)", 59),
    ("Cc1ccc(Nc2nccc(N(C)c3ccc4c(C)n(C)nc4c3)n2)cc1S(N)(=O)=O", "panel of more than 300 wild-type and mutant kinases (313 kinase panel) (Homo sapiens)", 95),
    ("C[C@@H](Oc1cc(-c2cnn(C3CCNCC3)c2)cnc1N)c1c(Cl)ccc(F)c1Cl", "panel of more than 300 wild-type and mutant kinases (313 kinase panel) (Homo sapiens)", 16),
    ("O=S(=O)(c1cccc2cnccc12)N1CCCNCC1", "panel of more than 300 wild-type and mutant kinases (313 kinase panel) (Homo sapiens)", -0.648),
    ("CCCS(=O)(=O)Nc1ccc(F)c(C(=O)c2c[nH]c3ncc(-c4ccc(Cl)cc4)cc23)c1F", "panel of more than 300 wild-type and mutant kinases (313 kinase panel) (Homo sapiens)", 58),
    ("CNC(=O)c1cc(Oc2ccc(NC(=O)Nc3ccc(Cl)c(C(F)(F)F)c3)c(F)c2)ccn1", "panel of more than 300 wild-type and mutant kinases (313 kinase panel) (Homo sapiens)", 100),
    ("COc1cc2nccc(Oc3ccc(NC(=O)C4(C(=O)Nc5ccc(F)cc5)CC4)cc3)c2cc1OC [cabozantinib]", "panel of more than 300 wild-type and mutant kinases (313 kinase panel) (Homo sapiens)", 97),
    ("CC(=O)Nc1cccc(-n2c(=O)n(C3CC3)c(=O)c3c(Nc4ccc(I)cc4F)n(C)c(=O)c(C)c32)c1", "panel of more than 300 wild-type and mutant kinases (313 kinase panel) (Homo sapiens)", -0.648),
    ("N#CC[C@H](C1CCCC1)n1cc(-c2ncnc3[nH]ccc23)cn1", "panel of more than 300 wild-type and mutant kinases (313 kinase panel) (Homo sapiens)", 3),
]

For `CO[C@H]1C[C@@H]2CC[C@@H](C)[C@@](O)(O2)C(=O)C(=O)N2CCCC[C@H]2C(=O)O[C@H]([C@H](C)C[C@@H]2CC[C@@H](OCCO)[C@H](OC)C2)CC(=O)[C@H](C)/C=C(\C)[C@@H](O)[C@@H](OC)C(=O)[C@H](C)C[C@H](C)/C=C/C=C/C=C/1C` , what is its reported %-inhibition of KIT?
-10

I would be grateful if you could share the reported %-inhibition of KIT for `CO[C@H]1C[C@@H]2CC[C@@H](C)[C@@](O)(O2)C(=O)C(=O)N2CCCC[C@H]2C(=O)O[C@H]([C@H](C)C[C@@H]2CC[C@@H](OC(=O)C(C)(CO)CO)[C@H](OC)C2)CC(=O)[C@H](C)/C=C(\C)[C@@H](O)[C@@H](OC)C(=O)[C@H](C)C[C@H](C)/C=C/C=C/C=C/1C` .
-8
